- test system: rat mGlu2 SNAP-tagged receptor (rat, UniProt P31421 19-872, SNAP tag labelled with SNAP-Lumi4-Tb)
- Sequence (P31421 19-872): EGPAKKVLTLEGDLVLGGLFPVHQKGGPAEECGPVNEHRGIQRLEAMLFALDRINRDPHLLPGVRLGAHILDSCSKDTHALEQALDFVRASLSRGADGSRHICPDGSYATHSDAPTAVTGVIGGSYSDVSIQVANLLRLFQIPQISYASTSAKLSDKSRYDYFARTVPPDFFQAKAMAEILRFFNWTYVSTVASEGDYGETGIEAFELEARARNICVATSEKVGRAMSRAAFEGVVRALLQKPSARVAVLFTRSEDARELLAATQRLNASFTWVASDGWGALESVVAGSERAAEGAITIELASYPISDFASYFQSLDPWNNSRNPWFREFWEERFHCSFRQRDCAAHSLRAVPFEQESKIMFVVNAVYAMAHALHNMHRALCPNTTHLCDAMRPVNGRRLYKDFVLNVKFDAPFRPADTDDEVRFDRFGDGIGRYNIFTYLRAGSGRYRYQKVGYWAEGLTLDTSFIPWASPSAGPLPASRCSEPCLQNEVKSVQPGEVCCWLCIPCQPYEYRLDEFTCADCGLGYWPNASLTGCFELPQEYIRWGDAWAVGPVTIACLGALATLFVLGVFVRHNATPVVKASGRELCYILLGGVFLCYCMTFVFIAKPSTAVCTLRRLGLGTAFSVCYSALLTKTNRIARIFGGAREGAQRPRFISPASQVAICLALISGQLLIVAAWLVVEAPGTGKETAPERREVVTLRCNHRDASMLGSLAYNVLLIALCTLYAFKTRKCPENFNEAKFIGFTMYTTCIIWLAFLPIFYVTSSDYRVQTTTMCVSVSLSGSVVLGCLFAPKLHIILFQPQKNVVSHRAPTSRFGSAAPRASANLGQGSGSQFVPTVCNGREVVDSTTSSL
- test name: cell-based or functional assay
recorded metric: PAM effect G protein coupling, pEC50

// below: answered binders
| binder | PAM effect G protein coupling, pEC50 |
| --- | --- |
| IGF-1261 (IGF-1168 GS IGF-1168) (VHH, Used His-tagged in the assay) QVQLVQSGGGLVQAGGSLRLSCAASVRFFSINTMGWYRQAPGKQRELVADITSSGSTNYADSGKGRFTISRDNAKNTVYLQMNRLKPEDTAVYYCHADYKYTTHNTAWGQGTQVTVSSGGGGSGGGGSGGGGSQVQLVQSGGGLVQAGGSLRLSCAASVRFFSINTMGWYRQAPGKQRELVADITSSGSTNYADSGKGRFTISRDNAKNTVYLQMNRLKPEDTAVYYCHADYKYTTHNTAWGQGTQVTVSS | 7.62 pEC50 |
| IGF-1201 (IGF-1168 GS IGF-1159) (bispecific antibody) QVQLVQSGGGLVQAGGSLRLSCAASVRFFSINTMGWYRQAPGKQRELVADITSSGSTNYADSGKGRFTISRDNAKNTVYLQMNRLKPEDTAVYYCHADYKYTTHNTAWGQGTQVTVSSGGGGSGGGGSGGGGSQVQLVQSGGGLVQAGGSLRLSCAASGRTFSSFAMAWFRQAPGKEREFVAAISWSGSTGHADSVKGRFTITRDNAKNTVFLQMNSLKPEDTAVYYCALGKGSSYYYSPSGYDYWGQGTQVTVSS | 8.25 pEC50 |

Kindly consider the entry below.
get_value(item= IGF-1262 (IGF-1168 HcAb IGF-1168) (VHH, Used His-tagged in the assay) QVQLVQSGGGLVQAGGSLRLSCAASVRFFSINTMGWYRQAPGKQRELVADITSSGSTNYADSGKGRFTISRDNAKNTVYLQMNRLKPEDTAVYYCHADYKYTTHNTAWGQGTQVTVSSEPKIPQPQPKPQPQPQPQPQPKPQPKPEPQVQLVQSGGGLVQAGGSLRLSCAASVRFFSINTMGWYRQAPGKQRELVADITSSGSTNYADSGKGRFTISRDNAKNTVYLQMNRLKPEDTAVYYCHADYKYTTHNTAWGQGTQVTVSS , readout=PAM effect G protein coupling, pEC50) returns 7.2 pEC50
